These measurements were taken from ChEMBL document CHEMBL1201862.

System: SK-MEL-28
Test: NCI tumour cell line growth inhibition, 48 h
Active and inactive are the calls of the source. Rule as the data show it: active = GI50 up to about 1.1 µM and inactive = higher.
Give GI50 for every item shown.

INPUT: Recorded GI50 for `O=C(/C=C/c1ccc(O)c(O)c1O)OCCc1ccccc1` , please?
OUTPUT: > 100 µM (inactive)

INPUT: Recorded GI50 for CC1CNC(c2cccc(OCc3ccc(COc4cccc(C5=NC(C)CN5)c4)cc3)c2)=N1 (stereo unspecified) , please?
OUTPUT: 61.7 µM (inactive)

INPUT: Recorded GI50 for `CC(=O)Nc1ccc(C(=O)N2N=C(C)/C(=C/c3cccc(O)c3)C2=O)cc1` , please?
OUTPUT: > 100 µM (inactive)

INPUT: Recorded GI50 for `CCc1cccc(CC)c1NC1=CC(=O)C(=O)c2ccccc21` , please?
OUTPUT: 15.6 µM (inactive)

INPUT: Recorded GI50 for `O=C1Cc2ccccc2N1c1c(Cl)cccc1Cl` , please?
OUTPUT: 54 µM (inactive)

INPUT: Recorded GI50 for O=c1c(-c2ccc(O)cc2)coc2cc(OC3OC(CO)C(O)C(O)C3O)cc(O)c12 (stereo unspecified) , please?
OUTPUT: > 10 µM (inactive)

* * *

Tested on: TK-10
Experiment: NCI tumour cell line growth inhibition, 48 h
Active and inactive are the calls of the source. Rule as the data show it: active = GI50 up to about 1.1 µM and inactive = higher.
Would you mind answering with one of these outcomes? true (1) = active, false (0) = inactive

INPUT: Field: outcome | Entry: CC(=O)OCC1OC(SC2OC(COC(C)=O)C(OC(C)=O)C(OC(C)=O)C2OC(C)=O)C(OC(C)=O)C(OC(C)=O)C1OC(C)=O (stereo not given)
OUTPUT: false (0)

INPUT: Field: outcome | Entry: S=P1(Oc2ccccc2)NNP2(=NP(N3CC3)(N3CC3)=NP(N3CC3)(N3CC3)=N2)NN1 (stereo not given)
OUTPUT: false (0)

INPUT: Field: outcome | Entry: `O=C(O)CN(c1ccccc1)S(=O)(=O)c1ccccc1[N+](=O)[O-]`
OUTPUT: false (0)

INPUT: Field: outcome | Entry: `Cc1nc2c(O)nc3ccccc3c2o1`
OUTPUT: false (0)

INPUT: Field: outcome | Entry: COc1cc2c(c(OC)c1OC)-c1ccc(SC)c(=O)cc1C(CC(=O)Oc1cccc([N+](=O)[O-])c1)C2 (stereo not given)
OUTPUT: false (0)

INPUT: Field: outcome | Entry: CCC1N2CCCCC2[C@@H]2c3[nH]c4ccccc4c3CCN12 (stereo not given in full)
OUTPUT: false (0)

INPUT: Field: outcome | Entry: `C/C(=N/NC(=S)Nc1ccccc1Cl)c1ccccn1`
OUTPUT: true (1)

INPUT: Field: outcome | Entry: C#CC1(O)C(COP(=O)(O)OC(COCCCCCCCCCCCCCCCCCC)COP(=O)(O)OCC2OC(n3cc(C)c(=O)[nH]c3=O)CC2N=[N+]=[N-])OC(n2ccc(N)nc2=O)C1O (stereo not given)
OUTPUT: true (1)

INPUT: Field: outcome | Entry: `O=S(=O)(Cc1ccccc1)SCc1ccccc1`
OUTPUT: false (0)

INPUT: Field: outcome | Entry: `O=c1c2cc([N+](=O)[O-])ccc2nc2n1CCCCC2`
OUTPUT: false (0)

INPUT: Field: outcome | Entry: `O=S(=O)(c1ccccc1)n1c2ccc(Br)cc2c2nc3ccccc3nc21`
OUTPUT: false (0)

INPUT: Field: outcome | Entry: COC(=O)C(/C(=N\O)C(=O)Nc1ccc(Br)cc1)c1nc2ccccc2nc1O (stereo not given)
OUTPUT: false (0)

INPUT: Field: outcome | Entry: `[N-]=[N+]=Nc1nc2ccccc2c(N=[N+]=[N-])c1Cl`
OUTPUT: false (0)

INPUT: Field: outcome | Entry: `Cn1c(=O)nc2n(-c3cc(Cl)ccc3Cl)c3ccccc3nc-2c1=O`
OUTPUT: false (0)

INPUT: Field: outcome | Entry: Cc1cccc(NC(=O)C(=O)C(C(=O)c2ccccc2F)C2OC(=O)c3ccccc32)c1Cl (stereo not given)
OUTPUT: false (0)

INPUT: Field: outcome | Entry: `CCOc1cccc2[s+]snc12`
OUTPUT: false (0)

INPUT: Field: outcome | Entry: `Cc1cn(CCCCC2=NCCCN2)c(=O)[nH]c1=O`
OUTPUT: false (0)

INPUT: Field: outcome | Entry: COC(=O)/C(=N\NC(=O)c1ccccc1O)C(C#N)c1ccccc1 (stereo not given)
OUTPUT: false (0)

INPUT: Field: outcome | Entry: `COc1ccc(/C=C/c2cc(OC)c(OC)c(OC)c2)cc1`
OUTPUT: false (0)

INPUT: Field: outcome | Entry: `CC(C)(C)OC(=O)NCCC(=O)NC1(c2cc3ccccc3s2)CCCCC1`
OUTPUT: false (0)

* * *

System: ACHN
Assay: NCI tumour cell line growth inhibition, 48 h
The source made the active and inactive calls. No stated cut-off is given here; in the data, active = GI50 up to about 1.1 µM and inactive = higher.
Would you mind answering with one of these outcomes? active, inactive

INPUT: Field: outcome | Entry: O=C1Oc2ccccc2C1C/C(=N\Nc1ccccc1)c1ccccc1O (centres undefined)
OUTPUT: inactive

INPUT: Field: outcome | Entry: `CCOCN1COCN(C)C1=O`
OUTPUT: inactive

INPUT: Field: outcome | Entry: C#CC1(O)C(COP(=O)(O)OC(COCCCCCCCCCCCCCCCCCC)COP(=O)(O)OCC2OC(n3cc(C)c(=O)[nH]c3=O)CC2N=[N+]=[N-])OC(n2ccc(N)nc2=O)C1O (centres undefined)
OUTPUT: active

INPUT: Field: outcome | Entry: `c1ccc(C2=C(c3ccccc3)Sc3nnc(CCCCCCCCc4nnc5n4NC(c4ccccc4)=C(c4ccccc4)S5)n3N2)cc1`
OUTPUT: inactive

* * *

Test system: SF-295
Test: NCI tumour cell line growth inhibition, 48 h
The source made the active and inactive calls. Rule as the data show it: active = GI50 up to about 1.1 µM and inactive = higher.
Would you mind answering with one of these outcomes? active, inactive

INPUT: Field: outcome | Entry: CC1(CO)OC(n2cnc3cncnc32)CC1O (stereo not given)
OUTPUT: inactive

INPUT: Field: outcome | Entry: CNCC(SC)c1ccc(O)c(O)c1 (stereo not given)
OUTPUT: inactive

INPUT: Field: outcome | Entry: `Cc1ccc(N2CCC3(CC2)OCCO3)cc1`
OUTPUT: inactive

INPUT: Field: outcome | Entry: COc1cc(C2c3cc4c(cc3[C@@H](Nc3ccc(F)cc3)C3COC[C@H]23)OCO4)cc(OC)c1O (stereo not given in full)
OUTPUT: active

INPUT: Field: outcome | Entry: `Cc1cc2c(cc1C)[n+]([O-])c(C(=O)N1CCN(c3ccc([N+](=O)[O-])cc3)CC1)c(C)[n+]2[O-]`
OUTPUT: inactive

INPUT: Field: outcome | Entry: `COC(=O)c1ccc(/C=N/c2cc(C)nn2-c2ccccc2)cc1`
OUTPUT: inactive

INPUT: Field: outcome | Entry: `CN(CCCN=C=S)CCCN1c2ccccc2CCc2ccccc21`
OUTPUT: inactive

INPUT: Field: outcome | Entry: `COc1ccc(NC(=O)C(=O)Cc2ccc([N+](=O)[O-])c([N+](=O)[O-])c2CC(=O)C(=O)Nc2ccc(OC)cc2OC)c(OC)c1`
OUTPUT: inactive

INPUT: Field: outcome | Entry: `CCOC(=O)c1cc2cc(C)cc(C(=O)c3ccc([N+](=O)[O-])cc3)c2[nH]1`
OUTPUT: inactive

INPUT: Field: outcome | Entry: CCOC(=O)N(C)CCC1CC=CC(=O)C1c1cccc(OC)c1OC (stereo not given)
OUTPUT: inactive

* * *

System: UACC-257
Assay: NCI tumour cell line growth inhibition, 48 h
Activity calls are given as the source filed them. Cut-off read from the data, not from the text of the source: active = GI50 up to about 1.1 µM and inactive = higher.
Give GI50 for every item shown.

INPUT: Recorded GI50 for CC1CNC(c2cccc(OCc3ccc(COc4cccc(C5=NC(C)CN5)c4)cc3)c2)=N1 (stereo not given) , please?
OUTPUT: 12.6 µM (inactive)

INPUT: Recorded GI50 for `N#Cc1nc(C#N)n(C(=O)c2ccccc2)c1NC(=O)c1ccccc1` , please?
OUTPUT: > 100 µM (inactive)

INPUT: Recorded GI50 for `O=C(Nc1cccc(F)c1)c1cc2ccc(O)cc2o/c1=N\c1cccc(F)c1` , please?
OUTPUT: 9.68 µM (inactive)

INPUT: Recorded GI50 for COc1c(OC/C=C(\C)CCC=C(C)C)ccc2ccc(=O)oc12 [COLLININ] , please?
OUTPUT: > 100 µM (inactive)

INPUT: Recorded GI50 for COc1cc(OC2OC(CO)C(O)C(O)C2O)c2c(c1)O[C@@H]1[C@H](O)Oc3cc(OC)c(OC)cc3[C@]1(O)C2=O (stereo not given in full) , please?
OUTPUT: > 25 µM (inactive)

INPUT: Recorded GI50 for `COC(=O)CCC(=O)CC(=O)C1=NS(=O)(=O)c2nc(S(N)(=O)=O)c(Cl)cc2N1` , please?
OUTPUT: > 100 µM (inactive)

INPUT: Recorded GI50 for `COc1cc(OC)c2c(=O)c3c([N+](=O)[O-])cccc3n(C)c2c1` , please?
OUTPUT: > 100 µM (inactive)

INPUT: Recorded GI50 for O=C1CCCC1NC(=O)C(F)(F)F (stereo not given) , please?
OUTPUT: > 100 µM (inactive)

INPUT: Recorded GI50 for c1nncn1C12C3C4C5C3C1C5C42 (stereo not given) , please?
OUTPUT: > 100 µM (inactive)

INPUT: Recorded GI50 for `COc1ccc(-n2nnc(C(N)=O)c2O)cc1` , please?
OUTPUT: > 100 µM (inactive)
